Assay: Stability evaluation under influencing factors
Assay type: physicochemical
Details: RH 75%, 30 days
Procedure: Appropriate amounts of crystal forms I, II. III, and the compound of formula (I) were taken and exposed to conditions of 60° C., RH (relative humidity) 92.5%, RH (relative humidity) 75%, and light, respectively. The samples were collected on day 30, and the purity of the samples and changes in XRPD were examined according to the 2020 edition of the Chinese Pharmacopoeia.
MEASUREMENT NAME: Purity % (%)

MOLECULE: Nc1nccn2c(C34CCC(NC(=O)CN5CCOCC5)(CC3)C4)nc(-c3ccc(C(=O)Nc4cc(C(F)(F)F)ccn4)cc3)c12 (single isomer, unassigned) [Crystal form I]
UNIT ANNOTATION: %
Purity %: 98.7
--
MOLECULE: Nc1nccn2c(C34CCC(NC(=O)CN5CCOCC5)(CC3)C4)nc(-c3ccc(C(=O)Nc4cc(C(F)(F)F)ccn4)cc3)c12 (single isomer, unassigned) [Crystal form II]
UNIT ANNOTATION: %
Purity %: 99.3
--
MOLECULE: Nc1nccn2c(C34CCC(NC(=O)CN5CCOCC5)(CC3)C4)nc(-c3ccc(C(=O)Nc4cc(C(F)(F)F)ccn4)cc3)c12 [Compound of formula (I)]
UNIT ANNOTATION: %
Purity %: 99.7
--
MOLECULE: Nc1nccn2c(C34CCC(NC(=O)CN5CCOCC5)(CC3)C4)nc(-c3ccc(C(=O)Nc4cc(C(F)(F)F)ccn4)cc3)c12 (single isomer, unassigned) [Crystal form III]
UNIT ANNOTATION: %
Purity %: 98.7

###

Assay: Stability evaluation under influencing factors
Assay type: physicochemical
Conditions: light exposure, 30 days vs day 0
MEASUREMENT NAME: Purity decrease (%)

[A] Nc1nccn2c(C34CCC(NC(=O)CN5CCOCC5)(CC3)C4)nc(-c3ccc(C(=O)Nc4cc(C(F)(F)F)ccn4)cc3)c12 (single isomer, unassigned) [Crystal form I]
[B] Nc1nccn2c(C34CCC(NC(=O)CN5CCOCC5)(CC3)C4)nc(-c3ccc(C(=O)Nc4cc(C(F)(F)F)ccn4)cc3)c12 (single isomer, unassigned) [Crystal form III]
I would appreciate it if you could say which entry, A or B , has the lower Purity decrease value. // output: label of the selected item A

[a] Nc1nccn2c(C34CCC(NC(=O)CN5CCOCC5)(CC3)C4)nc(-c3ccc(C(=O)Nc4cc(C(F)(F)F)ccn4)cc3)c12 (single isomer, unassigned) [Crystal form II]
[b] Nc1nccn2c(C34CCC(NC(=O)CN5CCOCC5)(CC3)C4)nc(-c3ccc(C(=O)Nc4cc(C(F)(F)F)ccn4)cc3)c12 [Compound of formula (I)]
Please state the entry with greater Purity decrease among a and b . // output: label of the selected item b

###

Assay: Stability evaluation under influencing factors
Format: physicochemical
Conditions: Light exposure, 30 days
MEASUREMENT NAME: Crystal form identification (XRPD)

COMPOUND: Nc1nccn2c(C34CCC(NC(=O)CN5CCOCC5)(CC3)C4)nc(-c3ccc(C(=O)Nc4cc(C(F)(F)F)ccn4)cc3)c12 (single isomer, unassigned) [Crystal form III]
MEASUREMENT NAME: Crystal form identification (XRPD)
REPORTED MEASUREMENT: Consistent with day 0

COMPOUND: Nc1nccn2c(C34CCC(NC(=O)CN5CCOCC5)(CC3)C4)nc(-c3ccc(C(=O)Nc4cc(C(F)(F)F)ccn4)cc3)c12 (single isomer, unassigned) [Crystal form II]
MEASUREMENT NAME: Crystal form identification (XRPD)
REPORTED MEASUREMENT: Consistent with day 0

COMPOUND: Nc1nccn2c(C34CCC(NC(=O)CN5CCOCC5)(CC3)C4)nc(-c3ccc(C(=O)Nc4cc(C(F)(F)F)ccn4)cc3)c12 (single isomer, unassigned) [Crystal form I]
MEASUREMENT NAME: Crystal form identification (XRPD)
REPORTED MEASUREMENT: Consistent with day 0

COMPOUND: Nc1nccn2c(C34CCC(NC(=O)CN5CCOCC5)(CC3)C4)nc(-c3ccc(C(=O)Nc4cc(C(F)(F)F)ccn4)cc3)c12 [Compound of formula (I)]
MEASUREMENT NAME: Crystal form identification (XRPD)
REPORTED MEASUREMENT: Consistent with day 0
